substrate: O=C(O)CO; test: purified protein; settings: 50 mM Tris-HCl pH 8.0, 0.1 mM FMN, 30 °C
Consider the following proteins; for each one, report its Km.
Answers are plain numbers, in µM.

Protein: AtGOX1 (Arabidopsis thaliana; T4D) (protein) MEIDNVTEYDAIAKQKLPKMVYDYYASGAEDQWTLQENRNAFARILFRPRILIDVSKIDMTTTVLGFKISMPIMVAPTAMQKMAHPDGEYATARAASAAGTIMTLSSWATSSVEEVASTGPGIRFFQLYVYKNRNVVEQLVRRAERAGFKAIALTVDTPRLGRRESDIKNRFTLPPNLTLKNFEGLDLGKMDEANDSGLASYVAGQIDRTLSWKDVQWLQTITKLPILVKGVLTGEDARIAIQAGAAGIIVSNHGARQLDYVPATISALEEVVKATQGRIPVFLDGGVRRGTDVFKALALGASGIFIGRPVVFSLAAEGEAGVRKVLQMLRDEFELTMALSGCRSLKEISRNHITTEWDTPRPSARL
Assay value: 151
//
Protein: AtGOX1 (Arabidopsis thaliana) (protein, full length (367 residues), N-terminal His-tag, pET28a, expressed in Escherichia coli) MEITNVTEYDAIAKQKLPKMVYDYYASGAEDQWTLQENRNAFARILFRPRILIDVSKIDMTTTVLGFKISMPIMVAPTAMQKMAHPDGEYATARAASAAGTIMTLSSWATSSVEEVASTGPGIRFFQLYVYKNRNVVEQLVRRAERAGFKAIALTVDTPRLGRRESDIKNRFTLPPNLTLKNFEGLDLGKMDEANDSGLASYVAGQIDRTLSWKDVQWLQTITKLPILVKGVLTGEDARIAIQAGAAGIIVSNHGARQLDYVPATISALEEVVKATQGRIPVFLDGGVRRGTDVFKALALGASGIFIGRPVVFSLAAEGEAGVRKVLQMLRDEFELTMALSGCRSLKEISRNHITTEWDTPRPSARL
Assay value: 210

For every item below, please supply its Km.
1. AtGOX2 (Arabidopsis thaliana; T4D) (protein) MEIDNVTEYDAIAKAKLPKMVYDYYASGAEDQWTLQENRNAFARILFRPRILIDVNKIDMATTVLGFKISMPIMVAPTAFQKMAHPDGEYATARAASAAGTIMTLSSWATSSVEEVASTGPGIRFFQLYVYKNRKVVEQLVRRAEKAGFKAIALTVDTPRLGRRESDIKNRFTLPPNLTLKNFEGLDLGKMDEANDSGLASYVAGQIDRTLSWKDIQWLQTITNMPILVKGVLTGEDARIAIQAGAAGIIVSNHGARQLDYVPATISALEEVVKATQGRVPVFLDGGVRRGTDVFKALALGASGIFIGRPVVFALAAEGEAGVKKVLQMLRDEFELTMALSGCRSLSEITRNHIVTEWDTPRHLPRL
2. AtGOX1 (Arabidopsis thaliana; T158V) (protein) MEITNVTEYDAIAKQKLPKMVYDYYASGAEDQWTLQENRNAFARILFRPRILIDVSKIDMTTTVLGFKISMPIMVAPTAMQKMAHPDGEYATARAASAAGTIMTLSSWATSSVEEVASTGPGIRFFQLYVYKNRNVVEQLVRRAERAGFKAIALTVDVPRLGRRESDIKNRFTLPPNLTLKNFEGLDLGKMDEANDSGLASYVAGQIDRTLSWKDVQWLQTITKLPILVKGVLTGEDARIAIQAGAAGIIVSNHGARQLDYVPATISALEEVVKATQGRIPVFLDGGVRRGTDVFKALALGASGIFIGRPVVFSLAAEGEAGVRKVLQMLRDEFELTMALSGCRSLKEISRNHITTEWDTPRPSARL

Key:
390
100
